Attribution: patent US20250144094A1

- assay-target: Recombinant human ULK1 (1-649) (Homo sapiens (Human), UniProt O75385)
- Sequence (O75385 1-649): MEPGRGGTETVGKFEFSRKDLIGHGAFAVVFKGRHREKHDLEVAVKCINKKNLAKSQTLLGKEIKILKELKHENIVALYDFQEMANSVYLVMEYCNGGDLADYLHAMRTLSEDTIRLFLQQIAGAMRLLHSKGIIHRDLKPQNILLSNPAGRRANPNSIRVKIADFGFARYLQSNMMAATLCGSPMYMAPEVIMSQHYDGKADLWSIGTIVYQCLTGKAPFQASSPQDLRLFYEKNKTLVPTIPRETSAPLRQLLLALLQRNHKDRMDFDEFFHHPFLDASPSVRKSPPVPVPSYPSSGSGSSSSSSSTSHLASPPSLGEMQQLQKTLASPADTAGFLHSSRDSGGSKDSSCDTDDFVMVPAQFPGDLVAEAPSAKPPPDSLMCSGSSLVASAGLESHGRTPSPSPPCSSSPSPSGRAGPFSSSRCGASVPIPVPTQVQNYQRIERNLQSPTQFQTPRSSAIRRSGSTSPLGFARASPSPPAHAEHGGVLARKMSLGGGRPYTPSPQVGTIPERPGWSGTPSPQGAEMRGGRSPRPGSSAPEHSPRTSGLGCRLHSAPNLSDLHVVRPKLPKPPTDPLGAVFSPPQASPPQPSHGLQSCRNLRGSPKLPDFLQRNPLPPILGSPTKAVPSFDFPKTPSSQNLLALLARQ
- assay-notes: ULK1 ADP Glo kinase activity assay (MBP substrate)
- condition-info: 25° C., 40 minutes, read-out: ULK1 biochemical IC50
Catalogue of IC50 values

Some compounds with recorded IC50:
CNC(=O)c1csc(-c2nc(Nc3cc4c(cc3Cl)CNCC4)ncc2C(F)(F)F)c1 [Example 6]    50 to 100 nM
CN1CCc2cc(Cl)c(Nc3ncc(C(F)(F)F)c(-c4cc(S(C)(=O)=O)cs4)n3)cc2C1 [Example 100]    ≤ 10 nM
CN1Cc2cc(F)c(Nc3ncc(C(F)(F)F)c(-c4cc(S(C)(=O)=O)cs4)n3)cc2C1 [Example 80]    ≤ 10 nM
CC1(C)NC(=O)c2cc(-c3nc(Nc4cc5c(cc4Cl)CNCC5)ncc3C(F)(F)F)sc21 [Example 40]    ≤ 10 nM
CN1C(=O)c2cc(-c3nc(Nc4cc5c(cc4Cl)CNCC5)ncc3C(F)(F)F)sc2C1(C)C [Example 42]    ≤ 10 nM
CN1Cc2cc(Nc3ncc(C(F)(F)F)c(-c4cc(S(C)(=O)=O)cs4)n3)c(C3CC3)cc2C1 [Example 88]    ≤ 10 nM
O=C1NCCc2sc(-c3nc(Nc4cc5c(cc4F)CNCC5)ncc3C(F)(F)F)cc21 [Example 43]    ≤ 10 nM

Next, consider the following compound.
Prompt: Given the entry CS(=O)(=O)c1csc(-c2nc(Nc3cc4c(cc3Cl)CN(C3CC3)CC4)ncc2C(F)(F)F)c1 [Example 107] , report its measured IC50.
Completion: 10 to 50 nM
